Assay: self-splicing fitness, log relative to wild type (ln ratio); higher = more splicing; Tetrahymena group I intron in knt gene, E. coli kanamycin selection, DiMSum; sequences stand for … in CUCUCU…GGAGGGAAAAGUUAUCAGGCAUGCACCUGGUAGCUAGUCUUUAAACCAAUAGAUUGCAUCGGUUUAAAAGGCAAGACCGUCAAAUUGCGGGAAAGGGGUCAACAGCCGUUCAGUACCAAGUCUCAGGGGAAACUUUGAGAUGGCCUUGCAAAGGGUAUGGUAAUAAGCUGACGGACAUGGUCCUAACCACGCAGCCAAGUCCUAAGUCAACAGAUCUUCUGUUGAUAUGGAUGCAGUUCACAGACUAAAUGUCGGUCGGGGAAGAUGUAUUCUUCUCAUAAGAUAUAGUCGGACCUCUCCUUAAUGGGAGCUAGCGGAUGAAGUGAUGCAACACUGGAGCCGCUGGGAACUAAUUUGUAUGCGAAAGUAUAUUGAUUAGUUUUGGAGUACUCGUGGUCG;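 also: selection with 25 µg/mL kanamycin versus none on LB agar overnight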
Conditions: 37 °C
Response key: Condition met means self-splicing fitness (ln) >= -2; Condition not met means self-splicing fitness (ln) < -2.

Check out these entries, answers already filled in.
GUAUAGCAAUAUUACGAAGA	Condition met
AUCUAGCAAUAUUACGACCA	Condition met
UCGUAGCAAUAUUACGCGGU	Condition met
CGCUAGCAAUAUUACGUUAG	Condition not met
ACGAAGCAAUAUUACGAACU	Condition met

In plain terms: is recorded self-splicing fitness (ln) at least -2 for UGUCAGCAAUAUUACGCCCU ?
Condition met

In plain terms: is recorded self-splicing fitness (ln) at least -2 for CCUAAGCAAUAUUACGUCAA ?
Condition not met

In plain terms: is recorded self-splicing fitness (ln) at least -2 for ACUGAGCAAUAUUACGUAUU ?
Condition met

====

Assay: self-splicing fitness, log relative to wild type (ln ratio); higher = more splicing; Tetrahymena group I intron in knt gene, E. coli kanamycin selection, DiMSum; sequences stand for … in CUCUCU…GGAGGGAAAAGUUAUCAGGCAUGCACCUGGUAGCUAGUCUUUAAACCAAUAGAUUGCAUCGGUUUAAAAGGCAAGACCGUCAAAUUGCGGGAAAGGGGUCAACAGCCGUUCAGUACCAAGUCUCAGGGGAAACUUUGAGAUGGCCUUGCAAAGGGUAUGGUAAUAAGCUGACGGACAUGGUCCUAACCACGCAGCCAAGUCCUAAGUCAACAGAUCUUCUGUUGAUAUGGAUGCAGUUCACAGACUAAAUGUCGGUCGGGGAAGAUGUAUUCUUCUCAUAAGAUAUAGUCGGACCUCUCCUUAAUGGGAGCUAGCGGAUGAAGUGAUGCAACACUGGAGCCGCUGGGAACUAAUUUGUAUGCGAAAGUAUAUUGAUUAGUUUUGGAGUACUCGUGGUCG
Settings: 37 °C
ASSAY READOUT: self-splicing fitness (ln)

Answered examples (5):
GUGUAGCAAUAUUACGUGAG	-0.931
AGCGAGCAAUAUUACGCCUA	-1.89
CGUCAGCAAUAUUACGGAAU	-2.83
GAUAAGCAAUAUUACGCGCA	0.383
UAACAGCAAUAUUACGACCG	-0.323

# self-splicing fitness (ln) (sequence: AUCGAGCAAUAUUACGAACA ) is -1.27

# self-splicing fitness (ln) (sequence: GCAAAGCAAUAUUACGAGAA ) is -1.66

# self-splicing fitness (ln) (sequence: GCUUAGCAAUAUUACGGGGG ) is -1.54

# self-splicing fitness (ln) (sequence: CACGAGCAAUAUUACGAUUU ) is -1.99
